Tested on: SK-OV-3
Test: NCI tumour cell line growth inhibition, 48 h
Calls of active or inactive are those of the source. No stated cut-off is given here; in the data, active = GI50 up to about 1.1 µM and inactive = higher.
Permitted responses: Y for active, N for inactive

CCCOc1ccc2sc(NC(=O)c3cc([N+](=O)[O-])cc([N+](=O)[O-])c3)nc2c1 : N
COc1cc(/C=C/C(=O)Oc2ccc(NC(C)=O)cc2)ccc1C(=O)O/C=C/c1ccccc1 : N
Cc1ccc(S(=O)(=O)NC(=O)Nc2nnc(S(N)(=O)=O)s2)cc1 : N
CC1=C(N2CC2)C(=O)c2nc3n(c2C1=O)CCC3OC(=O)CCl (stereo not given) : Y
Cc1ccc(S(=O)(=O)N/N=C/c2oc(-c3ccncc3)c(-c3ccncc3)c2[N+](=O)[O-])cc1 : N

Task: Status in this test for O=C=C=P(c1ccccc1)(c1ccccc1)c1ccccc1 ?
Output: N

Task: Status in this test for O=P1(NCCCl)OCCC(OO)N1CCCl (stereo not given) ?
Output: N

Task: Status in this test for C=C1C(=O)OC2CC(C)C(C(CC(C)=O)OC(C)=O)=CCC12 (stereo not given) ?
Output: N

Task: Status in this test for S=C1Cc2c(-c3ccc(Cl)cc3)cc(-c3ccccc3)nc2-c2ccccc2N1 ?
Output: N

Task: Status in this test for Nc1ncc(CN2CCOCC2)c(-c2ccccc2O)n1 ?
Output: N
